# SYSTEM_NAME: Vanilloid receptor (Rattus norvegicus, UniProt Q9ERZ8+Q9WUD2+O35433)
# ASSAY_COMMENT: Compound tested in vitro for [Ca2+] influx into neonatal rat dorsal root ganglia (DRG)
# Assay type: functional
ATTRIBUTE_MEASURED: EC50 (nM)

COc1cc(C/N=C(\S)NCCc2ccccc2)ccc1OCCN    2720
COc1cc(C/N=C(\S)NCCc2ccc(Cl)cc2)ccc1O    56
COc1cc(CN/C(S)=N/C=C/c2ccc(Cl)cc2)ccc1O    410
CNCCOc1ccc(C/N=C(\S)NCCc2ccc(Cl)cc2)cc1OC    7030
COc1cc(C/N=C(\S)NCCc2ccc(Cl)cc2)ccc1OCCNC(C)=O    5130
COc1cc(CNC(=S)NCc2ccc(C(C)(C)C)cc2)ccc1O    510
COc1cc(CN/C(S)=N/C=C\c2ccc(Cl)cc2)ccc1O    41
COc1cc(C/N=C(\S)NCCc2ccc(Cl)cc2)ccc1OCCN(C)C    3520

P = CCOC(=O)NCCOc1ccc(C/N=C(\S)NCCc2ccc(Cl)cc2)cc1OC
Q = COc1cc(C/N=C(\S)NCCc2ccc(F)cc2)ccc1O
Field: lower recorded EC50 (choose P or Q ) Field: selected label. Fill in the label of the entry you choose.
Q
(Q: 130 nM, P: 6140 nM)
